# IC50 listing for each entry below
biological target: human V2 receptor (Homo sapiens, UniProt P30518); assay: Cellular in vitro assay for determining vasopressin receptor activity, V2 receptor cell line (CRE-luciferase); details: CHO cell line transfected with the human V2 receptor; [Arg8]-vasopressin at EC50 concentration; read-out: IC50 hV2
Sequence (P30518 whole entry): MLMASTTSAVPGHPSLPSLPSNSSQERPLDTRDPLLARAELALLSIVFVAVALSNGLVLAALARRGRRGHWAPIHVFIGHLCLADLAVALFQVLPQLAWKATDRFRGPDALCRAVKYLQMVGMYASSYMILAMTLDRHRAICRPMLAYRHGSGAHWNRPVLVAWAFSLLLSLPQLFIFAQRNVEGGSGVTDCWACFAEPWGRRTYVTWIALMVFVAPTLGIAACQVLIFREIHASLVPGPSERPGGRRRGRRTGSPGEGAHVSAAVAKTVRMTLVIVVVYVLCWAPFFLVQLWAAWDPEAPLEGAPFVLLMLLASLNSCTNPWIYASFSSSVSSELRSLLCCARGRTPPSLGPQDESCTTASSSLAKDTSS
Your answer should be a plain number; it is taken to be in nM.

Here are 3 compounds together with their reported answers.
>  <compound>
CC(O)(C(=O)O)c1nc(Cn2nc(-c3ccc(Cl)cc3)n(C[C@H](O)C(F)(F)F)c2=O)nn1-c1ccccc1Cl (mixture of isomers) [Example 14]

>  <IC50 / nM>
76

$$$$
>  <compound>
O=c1n(Cc2nc(C(O)C(F)(F)F)n(-c3cccc(Cl)c3)n2)nc(-c2ccc(Cl)cc2)n1C[C@H](O)C(F)(F)F (single isomer, unassigned) [Example 11]

>  <IC50 / nM>
1.8

$$$$
>  <compound>
CC(C)C(O)c1nc(Cn2nc(-c3ccc(Cl)cc3)n(C[C@H](O)C(F)(F)F)c2=O)nn1-c1ccccc1Cl (mixture of isomers) [Example 7]

>  <IC50 / nM>
5.1

$$$$

Recorded result, O=c1n(Cc2nc(C(O)C(F)(F)F)n(-c3cccc(Cl)c3)n2)nc(-c2ccc(Cl)cc2)n1C[C@H](O)C(F)(F)F (mixture of isomers) [Example 10] , IC50: 2.1

Recorded result, CCC(O)c1nc(Cn2nc(-c3ccc(Cl)cc3)n(C[C@H](O)C(F)(F)F)c2=O)nn1-c1ccccc1Cl (single isomer, unassigned) [Example 6] , IC50: 8.4

Recorded result, `CC(C)(O)c1nc(Cn2nc(-c3ccc(Cl)cc3)n(C[C@H](O)C(F)(F)F)c2=O)nn1-c1cccc(Cl)c1` , IC50: 3.3

----------
molecular target: human V1a receptor (Homo sapiens); assay: Cellular in vitro assay for determining vasopressin receptor activity, V1a receptor cell line (aequorin luminescence); settings: CHO cell line transfected with the human V1a receptor; [Arg8]-vasopressin at EC50 concentration; read-out: IC50 hV1a
Threshold check on IC50: strictly below 800 pM is 1; on or above 800 pM is -1.

>  <compound>
CC(C)C(O)c1nc(Cn2nc(-c3ccc(Cl)cc3)n(C[C@H](O)C(F)(F)F)c2=O)nn1-c1ccccc1Cl (single isomer, unassigned) [Example 9]

>  <label>
-1

$$$$

# TODO verify IC50 < 800 pM strictly for this compound: CCC(O)c1nc(Cn2nc(-c3ccc(Cl)cc3)n(C[C@H](O)C(F)(F)F)c2=O)nn1-c1ccccc1Cl (mixture of isomers) [Example 4] 1

# TODO verify IC50 < 800 pM strictly for this compound: O=c1n(Cc2nc(C(O)C(F)(F)F)n(-c3cccc(Cl)c3)n2)nc(-c2ccc(Cl)cc2)n1C[C@H](O)C(F)(F)F (single isomer, unassigned) [Example 12] -1

# TODO verify IC50 < 800 pM strictly for this compound: CC(C)C(O)c1nc(Cn2nc(-c3ccc(Cl)cc3)n(C[C@H](O)C(F)(F)F)c2=O)nn1-c1ccccc1Cl (single isomer, unassigned) [Example 8] 1

# TODO verify IC50 < 800 pM strictly for this compound: CC(O)(C(=O)O)c1nc(Cn2nc(-c3ccc(Cl)cc3)n(C[C@H](O)C(F)(F)F)c2=O)nn1-c1ccccc1Cl (single isomer, unassigned) [Example 16] -1

----------
# IC50 listing for each entry below
biological target: human V1a receptor (Homo sapiens, UniProt P37288); experiment: Cellular in vitro assay for determining vasopressin receptor activity, V1a receptor cell line (aequorin luminescence); settings: CHO cell line transfected with the human V1a receptor; [Arg8]-vasopressin at EC50 concentration; read-out: IC50 hV1a
Sequence (P37288 whole entry): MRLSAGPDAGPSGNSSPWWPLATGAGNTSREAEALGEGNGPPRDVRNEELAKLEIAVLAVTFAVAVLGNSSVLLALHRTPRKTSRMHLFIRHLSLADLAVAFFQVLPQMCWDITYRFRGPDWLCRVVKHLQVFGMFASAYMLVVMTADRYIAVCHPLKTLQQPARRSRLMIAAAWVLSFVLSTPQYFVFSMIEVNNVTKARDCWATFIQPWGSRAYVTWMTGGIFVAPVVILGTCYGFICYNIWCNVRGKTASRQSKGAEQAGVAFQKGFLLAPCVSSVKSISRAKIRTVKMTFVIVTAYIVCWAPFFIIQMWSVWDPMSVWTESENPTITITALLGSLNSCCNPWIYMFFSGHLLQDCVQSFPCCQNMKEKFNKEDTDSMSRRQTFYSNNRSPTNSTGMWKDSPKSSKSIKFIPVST
Your answer should be a plain number; it is taken to be in nM.

Here are 2 molecules together with their reported answers.
>  <molecule>
CC(C)C(O)c1nc(Cn2nc(-c3ccc(Cl)cc3)n(C[C@H](O)C(F)(F)F)c2=O)nn1-c1ccccc1Cl (mixture of isomers) [Example 7]

>  <attribute.measured>
IC50

>  <data.value>
0.8

$$$$
>  <molecule>
CC(O)(C(=O)O)c1nc(Cn2nc(-c3ccc(Cl)cc3)n(C[C@H](O)C(F)(F)F)c2=O)nn1-c1ccccc1Cl (single isomer, unassigned) [Example 15]

>  <attribute.measured>
IC50

>  <data.value>
3.5

$$$$

Kindly consider the entry below.
Recorded result, O=c1n(Cc2nc(C(O)C(F)(F)F)n(-c3cccc(Cl)c3)n2)nc(-c2ccc(Cl)cc2)n1C[C@H](O)C(F)(F)F (single isomer, unassigned) [Example 11] , IC50: 14.9
